Assay: Selectivity index, ratio of CC50 for human HEL cells to EC50 for antiviral activity against thymidine kinase deficient Varicella zoster virus
Format: toxicity
Settings: read-out: Ratio CC50/EC50
value.kind: selectivity ratio

Some molecules with recorded selectivity ratio:
molecular.string	measured
CCCCCCCCCCOc1ccc2c(c1)N(C)c1nc(=O)n([C@H]3C[C@H](O)[C@@H](CO)O3)cc1O2	> 6
CCCCCCCCOc1ccc2c(c1)Nc1nc(=O)n([C@H]3C[C@H](O)[C@@H](CO)O3)cc1O2	> 6
CCCCCCCCCOc1ccc2c(c1)Nc1nc(=O)n([C@H]3C[C@H](O)[C@@H](CO)O3)cc1O2	> 8

# ---- query molecule ----
Data request: Quick check: selectivity ratio of "CCCCCCCCCCOc1ccc2c(c1)Nc1nc(=O)n([C@H]3C[C@H](O)[C@@H](CO)O3)cc1O2" ?
Data returned: 3

Ref: ChEMBL document CHEMBL4842312
